Settings: 293.15 K; 101.33 kPa; Liquid; Vibrating tube method
quantity: mass density (kg/m3)

{"compound": "CC(C)O", "mass density [kg/m3]": 785.198}
{"compound": "CCCCC(C)O (centres undefined)", "mass density [kg/m3]": 814.174}
{"compound": "CCCC(C)O (centres undefined)", "mass density [kg/m3]": 809.305}
{"compound": "CCCCCCC(C)O (centres undefined)", "mass density [kg/m3]": 820.313}
